quantity_name: melting point

>>> value_observed("O=Cc1c(O)ccc2ncccc12")
"136 to 137 °C"
>>> value_observed("COc1ccc(C2CNC(=O)C2)cc1OCCC(C)N1CCN(c2ccccc2)CC1 (stereo not given)")
"88 to 90 °C"
>>> value_observed("Nc1nc(Cl)c2c(n1)OCC2")
"258 to 263 °C"
>>> value_observed("Cc1ccc(C=CC(=O)C2CC2)cc1")
"75 to 76 °C"
>>> value_observed("C/C(=N\\OC(=O)c1ccc(CNC(=O)OC(C)(C)C)cc1)[C@H]1CC[C@H]2[C@@H]3CCC4=CC(=O)CC[C@]4(C)[C@H]3CC[C@]12C")
"166 to 168 °C"

###

List of melting point values.
quantity_name: melting point

>>> value_observed("Cc1cccc(C)c1NC(=O)c1ccc(N)cc1")
"212 to 215 °C"
>>> value_observed("O=C(O)COC(=O)c1ccccc1O")
"131 to 132 °C"
>>> value_observed("COc1ccc(-c2nn(CC(C)C)c(=O)c(CO)c2-c2ccc(OC)cc2)cc1")
"121 to 122 °C"
>>> value_observed("Cc1c(C)c2c(c(C)c1O)CCC(C)(C(=O)N1CC(Oc3ccc(NC(=O)OC(C)(C)C)cc3)C1)O2 (configuration not stated)")
"182 to 183 °C"
>>> value_observed("CC(C)(N)CCn1c(=O)oc2ccccc21")
"145 to 147 °C"
>>> value_observed("CC(C)(C)n1ncc(OCc2ccc(Oc3ccc(Cl)cc3)nc2)c(Cl)c1=O")
"150 to 154 °C"
>>> value_observed("COc1cc2c(cc1C(F)(F)F)N(C(=O)Nc1csc(-c3cnccn3)n1)CC2")
"> 240 °C"
>>> value_observed("CC(=O)SC(CC(=O)c1ccc(Oc2cccc(Cl)c2)cc1)C(=O)O (configuration not stated)")
"122 to 125 °C"
>>> value_observed("CC(C)OCC(=O)NC1CCN(CC23CC(c4ccccc42)c2ccc(Cl)cc23)CC1 (configuration not stated)")
"50 to 53 °C"
>>> value_observed("COc1ccc([C@H](O)[C@@H](Cc2ccc(C(F)(F)F)cc2)C(=O)O)cc1 (racemic)")
"113 to 114 °C"
>>> value_observed("Clc1ccc(C=NC(c2ccccc2)c2ccccc2)cc1")
"83 to 84 °C"
>>> value_observed("C#CCc1c(-c2ccccc2)nc(C)[nH]c1=O")
"220 to 225 °C"
>>> value_observed("O=C(C1CC1)N1CCCCc2cc(C(O)(C(F)(F)F)C(F)(F)F)ccc21")
"165 to 167 °C"
>>> value_observed("O=c1[nH]c(N2CCN(Cc3ccccc3)C(CO)C2)cc2ccccc12 (configuration not stated)")
"176 to 177 °C"
>>> value_observed("CON(C)C(=O)c1ccc(-c2ccc(CBr)cc2)cc1")
"105 to 106 °C"
>>> value_observed("CC1(C)CC(=O)Nc2ccc(Br)cc21")
"176 to 179 °C"
>>> value_observed("CC(C)(CF)C(=O)C(Oc1ccc(Cl)cc1)n1cncn1 (configuration not stated)")
"60 to 63 °C"
>>> value_observed("CCOC(=O)C(=CNc1cn[nH]c1)C(C)=O")
"126 to 128 °C"
>>> value_observed("Cc1c2ccncc2c(C)c2c1[nH]c1ccc(O)cc12")
"307 to 309 °C"
>>> value_observed("CCCCCCCCc1cc(C=O)co1")
"25 °C"
>>> value_observed("CC(C)(C(=O)COc1cccc2ccccc12)C1OCCO1")
"69 °C"
>>> value_observed("COc1ccc(Cn2c(=O)n(C3CCCCC3)c3cc(Cl)ccc32)cc1OC")
"59 °C"

###

quantity_name: melting point

>>> value_observed("COC(=O)c1nccc(N)n1")
"140 to 142 °C"
>>> value_observed("CCCCOCCOc1ccc(-c2ccc3c(c2)C=C(C(=O)Nc2ccc(C/C(=N\\O)c4nccn4CCC)cc2)CCN3CC(C)C)cc1")
"166 to 168 °C"
>>> value_observed("O=c1nc(-c2nccs2)sc2ccccc12")
"229 to 230 °C"
>>> value_observed("CC(=O)Nc1ccc(-c2cccc(-n3c(-c4cccnc4N)nc4cc(-c5cccc(NC(C)=O)c5)c(-c5cccnc5)nc43)c2)cc1")
"166 to 168 °C"
>>> value_observed("Cc1cc(-n2cnn(Cc3ccccc3)c2=O)sc1C(=O)NCc1cccnc1")
"180 to 181 °C"
>>> value_observed("COc1ccc2[nH]cc(-c3cc4nccnc4[nH]3)c2c1")
"268 to 271 °C"
>>> value_observed("O=C(Nc1cccc2c1C(=O)c1c-2n[nH]c1-c1ccc(N2CCC(N3CCOCC3)CC2)cc1)NN1CCOCC1")
"249 °C"
>>> value_observed("CC(=O)OC1CSC(Oc2ccc(-c3ccc(F)nc3)nc2)C(OC(C)=O)C1OC(C)=O (stereo not given)")
"185 °C"
>>> value_observed("CC(C)N(CCC(CCN1CCCCC1)(C(N)=O)c1ccccc1Cl)Cc1ccccc1 (stereo not given)")
"104 to 111 °C"
>>> value_observed("COc1cnccc1-c1csc(Cc2ccccc2)n1")
"76 to 77 °C"
>>> value_observed("CN(c1ccc2ccccc2c1)c1nc(=O)c2cccnc2s1")
"230 to 232 °C"
>>> value_observed("CCCCc1nc(Cl)c(CC(=O)O)c(Cc2ccc(-c3ccccc3-c3nnn[nH]3)cc2)n1")
"180 °C"
>>> value_observed("O=S1(=O)Cc2ccc(Cl)cc2C(c2cccc(F)c2)=NN1")
"195 to 198 °C"
>>> value_observed("c1cncc(OCCCn2cc(-c3cc4nccnc4[nH]3)c3ccccc32)c1")
"208 to 209 °C"
>>> value_observed("CC(C)(C)OC(=O)NCCON=C(C(=O)O)c1cccs1")
"113 to 114 °C"
>>> value_observed("CC(C)C(=O)Nc1ccc2ncn3c(=O)c(C(=O)O)cnc3c2c1")
"312 to 314 °C"
>>> value_observed("COC1=C(OC)C(=O)C(CCCCCCCCCC(=O)N[C@@H](CCSC)C(=O)O)=C(C)C1=O")
"83 to 85 °C"
>>> value_observed("COc1ccc2c(c1OCC#N)CCC=C2")
"138 to 139 °C"
>>> value_observed("COC(=O)C1C=CCN2C(=O)C(CCOS(C)(=O)=O)(Cc3ccccc3)C(=O)N12 (stereo not given)")
"161 to 163 °C"
>>> value_observed("CCNC(=O)c1c([Si](C)(C)C)ccc(OC)c1Cl")
"136 to 137 °C"
>>> value_observed("CCS(=O)(=O)Nc1ccc(-c2cccc(-c3nc(C(C)C)[nH]c3-c3cccc(C)n3)c2)cc1")
"123 to 135 °C"
>>> value_observed("COc1ccc(-c2c(-c3ccc(S(C)(=O)=O)cc3)[nH]c3ccccc23)cc1")
"218 to 220 °C"
>>> value_observed("O=C(O)CCCCn1ccc2cc([N+](=O)[O-])ccc21")
"141 to 142 °C"
>>> value_observed("COc1ccc(-c2ccc(C3=NOC(CNC(C)=O)C3)cc2)ccc1=O (stereo not given)")
"104 to 105 °C"
>>> value_observed("O=C(O)Cc1cc(C(=O)Cc2c(F)cccc2Cl)ccc1O")
"240 °C"
>>> value_observed("C[C@@H](NS(=O)(=O)c1ccc(Cl)cc1)[C@](O)(Cn1cncn1)c1ccc(Cl)cc1Cl (relative stereo)")
"160 to 165 °C"
>>> value_observed("Cn1c(C(F)(F)F)cc(=O)n(-c2nc(Cl)c(O)cc2F)c1=O")
"189 to 192 °C"
>>> value_observed("O=C1CS(=O)(=O)C(C(=O)Nc2ccc(Cl)cc2)Cc2cc3c(cc21)OCCO3 (stereo not given)")
"273 to 274 °C"
>>> value_observed("CSc1ccc(-c2cn3c(c2-c2ccccc2)CCC3)cc1")
"112 °C"
>>> value_observed("O=C(Nc1ccc2[nH]ccc2c1)c1ccco1")
"181 to 182 °C"
>>> value_observed("CCc1ccc2c(c1)Cc1cc(C(C)=O)ccc1-2")
"120 to 122 °C"
>>> value_observed("Cc1nn(-c2c(Cl)cc(C(F)(F)F)cc2Cl)c(N)c1C#N")
"194 to 196 °C"
>>> value_observed("COC(=O)c1cc(COS(C)(=O)=O)cc([N+](=O)[O-])c1")
"96 to 97 °C"
>>> value_observed("Cc1nnc(-c2ccnc(NCc3cccnc3)c2)o1")
"139 to 140 °C"
>>> value_observed("NS(=O)(=O)c1ccc(N2CC(CO)OC2=O)cc1 (stereo not given)")
"154 to 156 °C"
>>> value_observed("Cc1cc(-c2cc(O)c(SCc3ccccc3)c(=O)o2)cc(C)c1O[Si](C)(C)C(C)(C)C")
"137 to 139 °C"
>>> value_observed("COc1ccccc1-c1cc(F)cc2c1NC(CN)CO2 (stereo not given)")
"84 °C"
>>> value_observed("CCOC(=O)c1c[nH]n(Cc2ccccc2)c1=O")
"79 to 81 °C"
>>> value_observed("COc1cccc(C=O)c1")
"83 to 84 °C"
>>> value_observed("CCC1(CC)O[C@@H](Oc2ccc3c(O)c(NC(=O)C(C)C)c(=O)oc3c2C)[C@H](O)[C@H](OC(=O)C2(C)C=CCN2)[C@H]1OC (stereo not given in full)")
"140 to 142 °C"

These data points were gathered from a melting point compilation (Tetko et al.; mined from patent text by program, amines drawn as free bases though some values may be those of a salt).
